This listing pairs molecules with measured pIC50.
target_of_assay: human TRPC5 (Homo sapiens, UniProt Q9UL62)
Construct: expressed in transfected cells; host or cells: HEK 293
Sequence (Q9UL62 whole entry): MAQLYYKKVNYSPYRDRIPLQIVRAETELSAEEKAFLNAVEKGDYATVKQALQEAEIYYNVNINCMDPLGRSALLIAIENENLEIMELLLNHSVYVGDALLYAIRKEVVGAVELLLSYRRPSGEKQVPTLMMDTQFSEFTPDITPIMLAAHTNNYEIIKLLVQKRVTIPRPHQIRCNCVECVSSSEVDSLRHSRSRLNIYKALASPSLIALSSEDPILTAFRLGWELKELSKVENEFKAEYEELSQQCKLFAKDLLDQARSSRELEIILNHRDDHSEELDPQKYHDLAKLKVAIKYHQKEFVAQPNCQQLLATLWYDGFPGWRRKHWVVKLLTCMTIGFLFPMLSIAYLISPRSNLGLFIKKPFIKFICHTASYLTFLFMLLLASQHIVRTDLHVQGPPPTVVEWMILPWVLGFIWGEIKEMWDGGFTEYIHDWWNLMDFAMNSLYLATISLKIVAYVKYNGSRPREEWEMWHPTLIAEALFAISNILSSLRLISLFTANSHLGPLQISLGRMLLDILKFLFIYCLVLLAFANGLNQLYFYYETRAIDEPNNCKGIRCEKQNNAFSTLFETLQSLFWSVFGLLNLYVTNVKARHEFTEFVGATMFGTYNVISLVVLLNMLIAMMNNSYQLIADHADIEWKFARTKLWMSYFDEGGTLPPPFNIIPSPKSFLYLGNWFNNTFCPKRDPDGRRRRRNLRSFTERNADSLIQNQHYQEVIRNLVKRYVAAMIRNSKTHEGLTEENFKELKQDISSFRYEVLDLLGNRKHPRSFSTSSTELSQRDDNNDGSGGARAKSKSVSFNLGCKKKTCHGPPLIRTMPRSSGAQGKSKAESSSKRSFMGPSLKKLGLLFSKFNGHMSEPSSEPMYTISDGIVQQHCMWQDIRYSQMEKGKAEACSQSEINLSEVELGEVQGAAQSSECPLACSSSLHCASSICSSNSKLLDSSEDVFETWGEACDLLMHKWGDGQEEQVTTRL
experiment_notes: Automated patch clamp assay (QPatch), current block after stimulation with rosiglitazone
Format: cell-based
condition_notes: HEK293 cells overexpressing TRPC5, whole cell automated patch, 100 mV, 7-substituted 7-azaindoles, read-out: TRPC5 IC50 100 mV
Description: HEK 293 cells expressing human TRPC5 were harvested, re-suspended in serum free medium, and added to the automated platform and used within 2-3 hours. Internal and external physiological solutions were freshly prepared prior to the assay. […] The automated electrophysiological platform QPatch 16 from Sophion (Denmark) was used to carry out the compounds profiling. The series resistance and quality of seals were continuously monitored during the experiments. […]
Value format note: pIC50 is -log10 of concentration (mol/L); just state the number.

molecule	measured_value
COc1cccc(Cn2cccc3cc(C(C)(C)C)nc2-3)c1 [drawing 128]	5.07
Cn1cc(Cn2cccc3cc(C(C)(C)C)nc2-3)c(C(F)(F)F)n1	4.98

We now examine a further molecule.
Note to self: pIC50 of "Cn1nc(C(F)(F)F)cc1Cn1cccc2cc(C(C)(C)C)nc1-2" with human TRPC5 (Homo sapiens, UniProt Q9UL62) was 4.91
